Where do the numbers come from? From patent US4692443A.

Reported MIC is given for each of the following compounds.
Test system: Klebsiella X68
Assay comment: standard in vitro agar dilution assay (MIC)
Format: cell-based
Condition description: Klebsiella strain X68; read-out: Agar Dilution MIC

| Compound | MIC |
| --- | --- |
| CO/N=C(\C(=O)NC1C(=O)N2C(C(=O)[O-])=C(C[n+]3ccc4scnc4c3)CSC12)c1csc(N)n1 (stereo not shown) [Example 12] | 0.03 mg/L |
| CO/N=C(\C(=O)N[C@@H]1C(=O)N2C(C(=O)[O-])=C(C[n+]3cccc4nc(N)sc43)CS[C@H]12)c1csc(N)n1 [Example 15] | 4 mg/L |
| CCc1nc2c[n+](CC3=C(C(=O)[O-])N4C(=O)C(NC(=O)/C(=N\OC)c5csc(N)n5)C4SC3)ccc2s1 (stereo not shown) [Example 14] | 0.03 mg/L |
| CO/N=C(\C(=O)NC1C(=O)N2C(C(=O)[O-])=C(C[n+]3ccc4[nH]cnc4c3)CSC12)c1csc(N)n1 (stereo not shown) [Example 2] | < 0.008 mg/L |
| CO/N=C(\C(=O)NC1C(=O)N2C(C(=O)[O-])=C(C[n+]3ccc4sc(C)nc4c3)CSC12)c1csc(N)n1 (stereo not shown) [Example 13] | 0.03 mg/L |
| CO/N=C(\C(=O)NC1C(=O)N2C(C(=O)[O-])=C(C[n+]3ccc4ncn(C)c4c3)CSC12)c1csc(N)n1 (stereo not shown) [Example 3] | 0.03 mg/L |
| CO/N=C(\C(=O)NC1C(=O)N2C(C(=O)[O-])=C(C[n+]3ccc4c(c3)ncn4C)CSC12)c1csc(N)n1 (stereo not shown) [Example 4] | 0.015 mg/L |
| CO/N=C(\C(=O)NC1C(=O)N2C(C(=O)[O-])=C(C[n+]3ccc4c(c3)nc(C)n4C)CSC12)c1csc(N)n1 (stereo not shown) [Example 6] | 0.03 mg/L |
| CO/N=C(\C(=O)NC1C(=O)N2C(C(=O)[O-])=C(C[n+]3ccc4[nH]c(C)nc4c3)CSC12)c1csc(N)n1 (stereo not shown) [Example 5] | 0.015 mg/L |
| CO/N=C(\C(=O)NC1C(=O)N2C(C(=O)[O-])=C(C[n+]3ccc4nc(C)n(C)c4c3)CSC12)c1csc(N)n1 (stereo not shown) [Example 7] | 0.03 mg/L |
